Recorded values, source the supplement of paper PMC9170038.

Below, each of the sequences is paired with its reported apparent KD of MS2 coat protein value.
System: MS2 coat protein
method.description: apparent KD of MS2 coat protein; higher = weaker reporter binding
test.conditions: Eterna round: R107; input ligand: theophylline 2 mM
reported.endpoint: apparent KD of MS2 coat protein (µM)

[[record]]
sequence_code = "ACAUGAGGAUCACCCAUGUGCCGUCUUGAUACCAGACCCGAAGUAGUCCCUUGGCAGCAACUACGUGAGGGUCGCCCAUGUGUAG [5kullin]"
reported_endpoint = "apparent KD of MS2 coat protein"
measurement_unit = "µM"
test_result = 0.0167

[[record]]
sequence_code = "ACACGAAGCUGAAGGAGCGUGGUAUAAUUUUUUACAUGAGGAUCACCCAUGUCUCAUUUUUCACAGGUAGGUCGCAGAUGCGUGA [JR_SSArginiB_Sub015]"
reported_endpoint = "apparent KD of MS2 coat protein"
measurement_unit = "µM"
test_result = 0.117

[[record]]
sequence_code = "UAAUGCAGGUCGGCCGCCACUACACACAUGAGGAUCACCCAUGUAGUUACUGGGUGAAGUGGCAGUAGGACCGGGACCUGCAUAA [Brourd01]"
reported_endpoint = "apparent KD of MS2 coat protein"
measurement_unit = "µM"
test_result = 0.873


---

Tested on: K4 kissing-loop RNA reporter
method.description: apparent KD of K4 kissing-loop reporter; higher = weaker reporter binding
test.conditions: Eterna round: R107; input ligand: theophylline 20 uM
Below, each of the sequences is paired with its reported apparent KD of K4 kissing-loop reporter value.
reported.endpoint: apparent KD of K4 kissing-loop reporter

[[record]]
sequence_code = "AGAGUUAUGCGAGGAUAUGCAGUUAGUACUCAAAGAGUACUAACGGCAGAGUGAUGUUCUGUGAAAGCAGAAGGUGCAUAACUCA [Omei KL FMN B SS B v8]"
reported_endpoint = "apparent KD of K4 kissing-loop reporter"
test_result = "857 nM"

[[record]]
sequence_code = "GGAGUUACCUGGGAUACCAGUCGGAGGCCCAGAGCUCGGAGUGAUGUUCUGGGAUGUUUCGGCCCUUGGCAGCUCUGGGUCUCCC [#2 Exclusion - Theophylline B Attempt #7 (HarryS)]"
reported_endpoint = "apparent KD of K4 kissing-loop reporter"
test_result = "895 nM"

[[record]]
sequence_code = "CCGGGCGGCUGAAGGAGCGGGCGGGCCCGAGUGAUGUUCGGGUGGGCCGUGAGGCCCGGAGCCCAGGUAGGUCGCGGUUCCGUCC [#2 Same State - Arginine B Attempt #18 (HarryS)]"
reported_endpoint = "apparent KD of K4 kissing-loop reporter"
test_result = "196 nM"

[[record]]
sequence_code = "UGUACCGAGUGAGGAUAUGUCGUCGAAAGACGAAAUGGAGUGAUGUUCCUUAAACUGCGAAAGCAGACAGAAGGCACUUGGUACU [FmnBS 29 G11+C75]"
reported_endpoint = "apparent KD of K4 kissing-loop reporter"
test_result = "170 nM"

[[record]]
sequence_code = "AGGAUCCGUCGACAAAAGUCGACAUAAGCCAAGGAUAUGACGAAAGUCAGAAGGUGGUCAUAAGACCAGUGAUGUUGGUGGAUCC [FmnA 13 #SwitchBubble #K4Late]"
reported_endpoint = "apparent KD of K4 kissing-loop reporter"
test_result = "309 nM"

[[record]]
sequence_code = "UGUGAUGUGUAGUGUAAUGUUUUGCGGGAUACCAGAGUCUUUUUAUUCCCUUGGCAGCUUGAGUGAUGUUUGAUGCUGUUCUUGU [llmdmullin]"
reported_endpoint = "apparent KD of K4 kissing-loop reporter"
test_result = "439 nM"

[[record]]
sequence_code = "AAAUAAAGCAGUCACCCAGUGAUGUUGGAAGGAGCGUGCGAAAGCACAGGUAGGUCGCCGAUAAGGACAAAGUCCAGUGGCUGCA [#SwitchBubble 28 #K4Early]"
reported_endpoint = "apparent KD of K4 kissing-loop reporter"
test_result = "590 nM"

[[record]]
sequence_code = "GCAGUCAAUCAACCACGAAAGUGGAUGGAUACCAGCCCGAAACCGGGCCCUUGGCAGCCAGUGAUGUUGGAAGACUGCUUUAAAA [#SwitchBubble 15 #K4Late]"
reported_endpoint = "apparent KD of K4 kissing-loop reporter"
test_result = "219 nM"

[[record]]
sequence_code = "AUACAGCGAAGCGCUAGUGAUGUUAGCGAAGGAGCGACUCAGGAGUCAGGUAGGUCGCGCUAAACAGGUUACGAGAGUAACCAGU [Arg A Ex t1]"
reported_endpoint = "apparent KD of K4 kissing-loop reporter"
test_result = "137 nM"

[[record]]
sequence_code = "AAUGUACAGGGAAGGAGCGUAGUCCAGUGAUGUUGGAGUUAAAUACCAGUGAUGUUGGUUAUACAGGUAGGUCGCCCUAAAGUGC [Exclusion Arginine B Gf 4]"
reported_endpoint = "apparent KD of K4 kissing-loop reporter"
test_result = "84.3 nM"

[[record]]
sequence_code = "ACGUCACGUAUACUGGUGGUUUCGAUCGAUACCAGUAGCGAGAGUUACCCUUGGCAGCGACAUGAGUGAUGUUCAUGUAUGAAGA [KL-XTheo-A1 #analogue]"
reported_endpoint = "apparent KD of K4 kissing-loop reporter"
test_result = "113 nM"


---

Test system: K4 kissing-loop RNA reporter;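 note: bound reporter read as fluorescence of individual clusters on recovered sequencing chips by microscopy, with normalized cluster intensities fitted with a binding model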
method.description: apparent KD of K4 kissing-loop reporter; higher = weaker reporter binding
test.conditions: Eterna round: R107; input ligand: tryptophan 2.4 mM
We'd kindly ask you to apply these apparent KD of K4 kissing-loop reporter classes: Low (below 100 nM), Medium (100 nM to below 200 nM), High (200 nM or more)

[[record]]
sequence_code = "GAGGUACAGGCGGCCGCCACUAGUGAUGUUAGUGAUGUUAGAUAAAGUAUAUAUCGGCGUGUAGAUAGGACCGGGCCUGAUGGAG [ssrykmullin]"
assigned_class = "Low"

[[record]]
sequence_code = "AGUACAAUUGCGGCCGCCACUCAACGCAGAUCAAAGAUCUGCAUUCACUCAGUGAUGUUGAGUGAGAGGACCGGGCAUUUGUACA [Omei KL Tryp B SS B v2]"
assigned_class = "Medium"

[[record]]
sequence_code = "AGACUACCACACUGUCAAUAGACAGUGAAUUAGGAUAUGCUGAUAAGCAGAAGGAGUGAUGUUCCCAGGUAGUCAAUAAAAUAAU [FmnAX 13 U30+C66]"
assigned_class = "Medium"

[[record]]
sequence_code = "AAAGUUGAAAGUGAUACCAGACGAGUGAAGGGAAGUAAUUAAUUUGGAGUGAUGUUCCGCGUCCCUUGGCAGCAUUUUGUAAUUU [Exclusion Theophylline B GF 24]"
assigned_class = "Medium"

[[record]]
sequence_code = "CCUCACGUAGGACUAGUGAUGUUAGACUACCGAGGACCGGUACGGCCGCCACUCGUCGUACAAGAUAACCAUCUGCCAGUAUACA"
assigned_class = "Medium"

[[record]]
sequence_code = "CGGCCGUUAUGAGAUACCAGAGUGGCGACCAGUGAUGUUGGUCGACGCUUGCGGUCGUCUCUCCCUUGGCAGCUUAGUACGAAAG [Inisar]"
assigned_class = "Low"

[[record]]
sequence_code = "CGUAGCAGACGAAGGAGCGGCUACCUGAUUCAAGGUGAUGCUUGAGUGAUGUUCAGGUGUAGCCAGGUAGGUCGCGUCUGCUACG [Arg B Ex t9]"
assigned_class = "Medium"

[[record]]
sequence_code = "UUUAACGAGUGAUGUUCGUAAAGUAAUAGUUAGGAUAUCGUUUUUUCGAGAAGGAACUUCGAAGUGAUACGAAAGUAUCGCUUCG [FMN A 8]"
assigned_class = "Medium"

[[record]]
sequence_code = "AAACGUUGGUGCGAUACCAGCUGGUCGGAAACGACCUUGCUGGAGUGAUGUUCCAAGUAAAGCCCUUGGCAGCGCACCGACGAAA [MAT - Same State Theophlline B - Mod of Eli - D23]"
assigned_class = "Low"

[[record]]
sequence_code = "GGCGUCUAAAAGUGCCUAGAGAGAAAGGAUACCAGCACCCGGCGGUGCCCUUGGCAGCCUAGCCCAGUGAUGUUGGGUCCUCUAA [Lasorian]"
assigned_class = "High"

[[record]]
sequence_code = "AGCGCCUAAGCCGAUACCAGAAACGCGGUGCGUCGCACGAUUAACUAGGAAAGUGAUGUUUUCCCUUGGCAGCGGGACCUGUGAG [theeternabot_exclusion_KL_Theo_B_11]"
assigned_class = "Medium"

[[record]]
sequence_code = "GGGAGAAGAGCGGCCGCCACUCAGAAAGAAGAAGAAUAUAGUGAUGUUAUAUAGGAAAGGAAGAAGAGGACCGGGCUUAAGAGGG [#18 K4 Tryptophan B Same State]"
assigned_class = "Medium"

[[record]]
sequence_code = "UGACAUUGCUCAGAUACCAGACCUGAGGAACACCCAGGUGCCAAAACGUACUAAAUAAAGGUCCCUUGGCAGCUGAGCAAUGUCU [TheoBX 13]"
assigned_class = "Low"

[[record]]
sequence_code = "UGAUUUAACUGAAGGAGCGGCAAUUGAUAAGUAAAUAUAGUGAUGUUAUAUAAGAUAGAGAGCCAGGUAGGUCGCAGAGGUAUGA [ExArgB.L]"
assigned_class = "Medium"

[[record]]
sequence_code = "AAAAUAAGCCAGUGAUGUUGGUAUGCAGAUACCAGCGACGAAAGUCGCCCUUGGCAGCUGUGGACGUACAAAAUAAGUACGUCCU"
assigned_class = "Medium"

[[record]]
sequence_code = "ACGGCGCUGGAACCAGUAAUGGGAAGAAUGCGAGGACCGGUACGGCCGCCACUCGCUUCCAGUGAUGUUGGAAGUGAGCCAACAA [Geerzaedre]"
assigned_class = "Medium"

[[record]]
sequence_code = "UGUCAUUGGUCGGCCGCCACUACAAGGUCAAAGACCAAAGAGUGAUGUUCUUAGACGAAAGUCAGUAGGACCGGGACCGAUGACU [TrypBS 8 #SwitchBubble #K4Middle]"
assigned_class = "High"

[[record]]
sequence_code = "CGGAUCGCAUCAGGAUAUCUCUCAUCAGUGAUGUUGGUGAAGCGUACGCGAAAGCGUACGCAGAUGAGAGAAGGGAUGCGAUCCG"
assigned_class = "High"

[[record]]
sequence_code = "UGACUGGAUGGAAGGAGCGCUAAACUCCUAGUGAUGUUAGGGACAUGAGGCAUAGCCUUGAAGCAGGUAGGUCGCCAUCUAGUCU [FiskerMod 29 - Jieux - Same State - Arginine B]"
assigned_class = "Medium"

[[record]]
sequence_code = "AAUGCAUAGUGAAGGAGCGCGAUUUGCAGUGAUGUUGCAAAUUUAAACAAUCUUAUCUUUUCGCAGGUAGGUCGCACUAUGCAUA [JR_Nu_SSArginiB_Sub021]"
assigned_class = "Low"

[[record]]
sequence_code = "UGUCAUUGGUCUGAUACCAGAAGAUAAUCUGGAGUGAUGUUCCAAGUACGACAAAGUCGCUUCCCUUGGCAGCAGACCGAUGACU [TheoBS 19 #SwitchBubble 13 #StaticStem]"
assigned_class = "High"

[[record]]
sequence_code = "UAAUCACUCGAACUUGCAACUCGAGUGGAACGAGGACCGGUACGGCCGCCACUCGAUAACUUGCAGUGAUGUUGCAAGUAAGAAU [(T)''-(K)'-(T)'-(T1)-(T2)-(K1)-(K2)_Design8]"
assigned_class = "High"

[[record]]
sequence_code = "AGUGCACUGUCAGGAUAUAUACAGUGAUGUUGUGUAUGUCGGCAAGUCAAAGACUUGCCAUUCUGUGUAGAAGGGACUGUGUACA [#04 K4 FMN B Exclusion]"
assigned_class = "High"

